Test system: VDR:RXRa (NR concentration 270 nM, RXRa partner concentration 90 nM)
Experiment: PBM binding z-score (relative to random genomic background probes); higher = stronger binding; sequences stand for … in GC…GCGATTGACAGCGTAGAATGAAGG
property-measured: PBM binding z-score
Reply: number alone, nothing else.

Example sequences with recorded PBM binding z-score:
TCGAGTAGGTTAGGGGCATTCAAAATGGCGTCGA ... 0.856
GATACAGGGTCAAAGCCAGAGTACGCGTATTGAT ... 4.5
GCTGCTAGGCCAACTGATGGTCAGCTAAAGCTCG ... -0.87

PBM binding z-score recorded for this sequence, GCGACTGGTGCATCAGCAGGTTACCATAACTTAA , is -0.435

According to the records, this sequence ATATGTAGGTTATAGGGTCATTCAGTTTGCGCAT displays PBM binding z-score of 5.98

sequence GTACTAAGGTGAATAGGTCGTTGATGAGTAGGCG , PBM binding z-score observed: 1.24

Memo: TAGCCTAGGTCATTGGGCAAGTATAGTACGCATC , reported PBM binding z-score: 2.09

Note to self: PBM binding z-score recorded for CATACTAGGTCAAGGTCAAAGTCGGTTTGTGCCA was 5.31

Per the records, this sequence ( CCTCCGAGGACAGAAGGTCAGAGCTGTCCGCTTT ) has PBM binding z-score equal to 1.36

* * *

Tested on: PPARg homodimer (NR concentration 180 nM)
Assay: PBM binding z-score (relative to random genomic background probes); higher = stronger binding; sequences stand for … in GC…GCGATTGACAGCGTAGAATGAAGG
Entries and their PBM binding z-score
Returns: the value as a bare number; no unit string appended.

Example cases with answers are listed next.
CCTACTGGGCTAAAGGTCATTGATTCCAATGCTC ... 4.02
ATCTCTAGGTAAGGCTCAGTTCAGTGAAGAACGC ... 0.996
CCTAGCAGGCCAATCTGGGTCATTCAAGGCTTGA ... 0.0423
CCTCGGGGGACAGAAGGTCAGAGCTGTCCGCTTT ... 1.59
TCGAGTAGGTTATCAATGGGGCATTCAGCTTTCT ... -0.00524

// PBM binding z-score value for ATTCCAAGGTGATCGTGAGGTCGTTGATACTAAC : 0.792

Recorded result, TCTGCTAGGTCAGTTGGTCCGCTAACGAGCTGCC , PBM binding z-score: -0.535

Lab note: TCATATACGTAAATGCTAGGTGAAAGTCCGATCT gave PBM binding z-score of 0.664

* * *

System: LXRb homodimer (NR concentration 270 nM)
Test: PBM binding z-score (relative to random genomic background probes); higher = stronger binding; sequences stand for … in GC…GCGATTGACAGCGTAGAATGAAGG
property-measured: PBM binding z-score
# output: bare number, no unit

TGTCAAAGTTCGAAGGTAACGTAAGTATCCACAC ... -0.175
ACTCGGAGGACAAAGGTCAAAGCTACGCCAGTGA ... 1.64
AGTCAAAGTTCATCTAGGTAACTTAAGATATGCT ... 1.81
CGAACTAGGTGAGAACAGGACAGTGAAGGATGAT ... -0.796

Consider now this further sequence.
PBM binding z-score in this record for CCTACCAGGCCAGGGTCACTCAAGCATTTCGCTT : -0.678
